assay: Biodistribution of 68Ga-labeled peptide in mice bearing B16F10 mouse melanoma; format: in vivo, C57BL/6J mice; conditions: C57BL/6J, B16F10 tumour, iv, with BMS 470539 (MC1R-specific inhibitor), 0.5 mg co-injected, total radioactivity, 1 h p.i. blocked, co-injection of 0.5 mg BMS 470539, read-out: Biodistribution, B16F10 tumour
MEASURED ENDPOINT: tissue uptake at 1 h (%ID/g)

{"columns": ["MOLECULE", "VALUE OBSERVED"],
 "data": [
  ["CCCC[C@H](NC(=O)CN1CCC(NC(=O)CN2CCN(CC(=O)O)CCN(CC(=O)O)CCN(CC(=O)O)CC2)CC1)C(=O)N[C@H]1CC(=O)NCCCC[C@@H](C(N)=O)N(C)C(=O)[C@H](Cc2c[nH]c3ccccc23)N(C)C(=O)[C@H](CCCNC(=N)N)N(C)C(=O)[C@@H](Cc2ccccc2)NC(=O)[C@H](Cc2c[nH]cn2)N(C)C1=O [^68Ga-labeled CCZ01099, metal not drawn]", 0.6]
]}
